Entry source: patent US20260242478A1

# assayed_system: T1, PSMA Fab (006 PSMA Fab)
# T1 construct: also called Anti-PSMA Fab; anti-PSMA Fab
# assay: clonal phage ELISA; biotinylated PSMA Fab on neutravidin plate, blocking buffer alone; anti-M13 HRP detection;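 note: crude clonal phage supernatants added without washing to wells pretreated with blocking buffer with or without PSMA antigen, short incubation, then washed before detecting bound phage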
Where no end group is shown, it is not given here.
parameter_measured: Phage binding ELISA signal, Anti-PSMA Fab
Response field accepts a number only; no unit should be typed.

Here's what some known entries look like.
binder	experimental_value
GHQMCVPQWMCDAF (cysteine pairing not given here; also: fused to phage pIII, orientation and linker not given here) [Phage-3129]	2.06
TAPVCVPWWMCEGF (cysteine pairing not given here; also: fused to phage pIII, orientation and linker not given here) [Phage-3139]	2.05
IVPKCQPSWMCFGF (cysteine pairing not given here; also: fused to phage pIII, orientation and linker not given here) [Phage-3137]	2.06
AERLCVPAWMCLNL (cysteine pairing not given here; also: fused to phage pIII, orientation and linker not given here) [Phage-3134]	2.06
VVQICKPSWMCEGF (cysteine pairing not given here; also: fused to phage pIII, orientation and linker not given here) [Phage-3136]	2.06
DTRICKPEWMCMGM (cysteine pairing not given here; also: fused to phage pIII, orientation and linker not given here) [Phage-3138]	2.06
DAVRCVPSWMCEGF (cysteine pairing not given here; also: fused to phage pIII, orientation and linker not given here) [Phage-3131]	2.06
THIICKPAWMCDAW (cysteine pairing not given here; also: fused to phage pIII, orientation and linker not given here) [Phage-3132]	2.06
HQLMCRPAWMCEGF (cysteine pairing not given here; also: fused to phage pIII, orientation and linker not given here) [Phage-3135]	2.06
IDTICRPSWMCLGF (cysteine pairing not given here; also: fused to phage pIII, orientation and linker not given here) [Phage-3140]	2.05

Which measured Phage binding ELISA signal, Anti-PSMA Fab value corresponds to YERSCVPSWMCEGF (cysteine pairing not given here; also: fused to phage pIII, orientation and linker not given here) [Phage-3133] ?
2.06

Which measured Phage binding ELISA signal, Anti-PSMA Fab value corresponds to AGVYCTPMWMCTGF (cysteine pairing not given here; also: fused to phage pIII, orientation and linker not given here) [Phage-3142] ?
2.05

Which measured Phage binding ELISA signal, Anti-PSMA Fab value corresponds to SVGYCVPSWMCSGF (cysteine pairing not given here; also: fused to phage pIII, orientation and linker not given here) [Phage-3130] ?
2.06

Which measured Phage binding ELISA signal, Anti-PSMA Fab value corresponds to YERVCEPLWMCTGF (cysteine pairing not given here; also: fused to phage pIII, orientation and linker not given here) [Phage-3141] ?
2.05
